Source: paper PMC2633595

Target: UniProt:P18067
Sequence (P18067 whole entry): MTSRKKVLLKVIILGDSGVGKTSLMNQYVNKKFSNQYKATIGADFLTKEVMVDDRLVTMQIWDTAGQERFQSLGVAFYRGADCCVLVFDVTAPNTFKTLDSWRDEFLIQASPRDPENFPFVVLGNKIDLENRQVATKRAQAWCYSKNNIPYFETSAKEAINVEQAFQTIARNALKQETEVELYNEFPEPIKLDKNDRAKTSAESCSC
Overview of recorded Ki for various molecules
# include the unit after the value

{"Chemical String": "Nc1nc2c(ncn2[C@@H]2O[C@H](COP(=O)(O)OP(=O)(O)O)[C@@H](O)[C@H]2O)c(=O)[nH]1", "Measured Result": "13 nM"}

Kindly consider the entry below.
Ki lookup needed for Nc1nc2c(ncn2[C@@H]2O[C@H](COP(=O)(O)OP(=O)(O)OP(O)(O)=S)[C@@H](O)[C@H]2O)c(=O)[nH]1 , thanks.
40 nM

###

Target: GST-RhoA (Homo sapiens)
Sequence (P61586 whole entry): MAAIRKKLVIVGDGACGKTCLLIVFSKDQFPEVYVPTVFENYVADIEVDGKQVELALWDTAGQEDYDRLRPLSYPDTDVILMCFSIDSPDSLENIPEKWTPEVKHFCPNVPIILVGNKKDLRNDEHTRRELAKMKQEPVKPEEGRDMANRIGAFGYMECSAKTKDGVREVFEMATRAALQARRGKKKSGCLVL
Format: binding
Settings: 1 mM MgCl2 buffer
Measurement Name: Kd (nM)
Lab book: enter the figure in nM, no units written.

{"Substance": "BODIPY FL GTP-γ-NH amide", "Measurement Name": "Kd", "Measured Result": 95}

Next item in the queue.
Fill in: Kd of BODIPY FL GTP 2’-(or-3’)-O-(N-(2-aminoethyl)urethane is ___
80
